Hello, the source for this data is patent US20250170155A1, in case you need it.

System: SARS-CoV-2 (hCoV-19/Japan/TY/WK 521/2020 strain)
assayComment: microbe, parasite or virus in culture
Type: cell-based
runParameters: HEK293T/ACE2-TMPRSS2 cells
parameter: SARS-CoV-2 SI (Selectivity Index), 293T-AT

>>> print(df.to_string())
                                   compound                               studysystem  observed
0  Cc1nc(-c2cc([C@@H]3N[C@H](CO)[C@@H](O)[C@H]3O)n3ncnc(N)c23)n[nH]1  SARS-CoV-2 (hCoV-19/Japan/TY/WK 521/2020 strain)     >16.4
1  Nc1ncnc2c([C@@H]3N[C@H](CO)[C@@H](O)[C@H]3O)c[nH]c12 [Galidesivir, reference compound]  SARS-CoV-2 (hCoV-19/Japan/TY/WK 521/2020 strain)      <5.3
2  Cc1nc(N)c2c(C(N)=O)cc([C@@H]3N[C@H](CO)[C@@H](O)[C@H]3O)n2n1.Cl  SARS-CoV-2 (hCoV-19/Japan/TY/WK 521/2020 strain)     >14.2
3  Nc1ncnn2c([C@@H]3N[C@H](CO)[C@@H](O)[C@H]3O)ccc12 [WO2014078778 Example5_30 g, reference compound]  SARS-CoV-2 (hCoV-19/Japan/TY/WK 521/2020 strain)     <1.34

---

Test system: SARS-CoV-2 (hCoV-19/Japan/TY/WK 521/2020 strain)
assayComment: microbe, parasite or virus in culture
Assay type: cell-based
runParameters: HEK293T/ACE2-TMPRSS2 cells
// SARS-CoV-2 SI (Selectivity Index), 293T-AT lookup, one value per entry
parameter: SARS-CoV-2 SI (Selectivity Index), 293T-AT

In [3]: df
Out[3]:
                       smilesrepresentation                               studysystem  observed
0  Cl.Nc1ncnn2c([C@@H]3N[C@H](CO)[C@@H](O)[C@H]3O)cc(-c3ccn(CCO)n3)c12  SARS-CoV-2 (hCoV-19/Japan/TY/WK 521/2020 strain)     >1577
1  Cl.Nc1nc(F)nn2c([C@@H]3N[C@H](CO)[C@@H](O)[C@H]3O)cc(-c3ncc[nH]3)c12  SARS-CoV-2 (hCoV-19/Japan/TY/WK 521/2020 strain)     >10.2
2  CCn1cc(-c2cc([C@@H]3N[C@H](CO)[C@@H](O)[C@H]3O)n3ncnc(N)c23)nn1.Cl  SARS-CoV-2 (hCoV-19/Japan/TY/WK 521/2020 strain)     >2.37

---

assayComment: Cytotoxic activity evaluation, RPMI 2650 cells
Assay type: cell-based
runParameters: human, no virus, 3 to 6 days
parameter: CC50

>>> print(df.to_string())
                                    molecule  parameter  observed
 0  Nc1ncnn2c([C@@H]3N[C@H](CO)[C@@H](O)[C@H]3F)ccc12       CC50  > 500 µM
 1  O=c1[nH]cnn2c([C@@H]3N[C@H](CO)[C@@H](O)[C@H]3O)ccc12       CC50  > 500 µM
 2  Cl.Nc1ncnn2c([C@H]3N[C@@H](CO)[C@H](O)[C@@H]3O)cc(B(O)O)c12       CC50  > 500 µM
 3  Cl.Nc1ncnn2c([C@@H]3N[C@H](CO)[C@@H](O)[C@H]3O)cc(-c3nc[nH]n3)c12       CC50   6.81 µM
 4  Nc1ncnn2c([C@@H]3N[C@H](CO)[C@@H](O)[C@H]3O)cnc12       CC50   70.5 µM
 5  OC[C@H]1N[C@@H](c2ccn3c(NO)ncnc23)[C@H](O)[C@@H]1O       CC50  > 500 µM
 6  Nc1ncnc2c([C@@H]3O[C@H](CO)[C@@H](O)[C@H]3O)ccn12       CC50   13.1 µM
 7  Nc1ncnn2c([C@@H]3N[C@@H](CO)[C@@H](O)[C@H]3F)ccc12       CC50  > 500 µM
 8  Nc1ncnn2c([C@@H]3N[C@H](CO)[C@@H](O)[C@H]3O)cc(/C=N\O)c12       CC50  > 500 µM
 9  CCC1[C@@H](c2ccc3c(N)ncnn23)[C@H](O)[C@H](O)[C@H]1CO (stereo partly drawn)       CC50  > 500 µM
10  Nc1ncnn2c([C@@H]3N[C@H](CO)[C@@H](O)[C@H]3O)cc(F)c12       CC50   5.38 µM
11  Cc1nc(N)c2ccc([C@@H]3N[C@H](CO)[C@@H](O)[C@H]3O)n2n1.Cl.Cl       CC50  > 500 µM
12  Cl.Nc1ncnn2c([C@@H]3N[C@H](CO)[C@@H](O)[C@H]3O)cc(-c3nccs3)c12       CC50  > 500 µM
13  Nc1nc(F)nn2c([C@@H]3N[C@H](CO)[C@@H](O)[C@H]3O)ccc12       CC50  > 500 µM
14  Nc1ncnc2c([C@@H]3N[C@H](CO)[C@@H](O)[C@H]3O)ccn12       CC50  > 500 µM
